Test: Oral absorption evaluation: animal experiment
Format: in vivo
Details: rat, plasma, male SD rats, 30 mg/kg in terms of cannabidiol, 0.5-24 hours, highest AUC of three rats, read-out: AUC (area under the blood concentration time curve) of the cannabidiol
assayReadout: AUC

"C=C(C)[C@@H]1CCC(C)=C[C@H]1c1c(O)cc(CCCCC)cc1O" yielded AUC of 812 ng·h/mL

# credit: patent US20260076909A1
